target: dihydrodipicolinate reductase (DHPR) (Escherichia coli, UniProt P04036); test: Fluorescence polarization displacement of FITC-NADH from dihydrodipicolinate reductase; format: binding; conditions: 7 μM DHPR, 25 nM FITC-NADH; read-out: actual Kd after correction for enzyme concentration
Sequence (P04036 whole entry): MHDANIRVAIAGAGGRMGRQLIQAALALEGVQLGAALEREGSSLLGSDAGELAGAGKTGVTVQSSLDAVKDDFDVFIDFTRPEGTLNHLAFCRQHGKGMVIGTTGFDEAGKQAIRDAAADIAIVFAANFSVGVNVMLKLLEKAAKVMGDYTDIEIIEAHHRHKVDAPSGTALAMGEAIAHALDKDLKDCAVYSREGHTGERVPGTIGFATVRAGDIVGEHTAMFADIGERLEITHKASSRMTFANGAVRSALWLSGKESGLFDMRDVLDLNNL
# pKd listing for each entry below
Scale for pKd: -log10 of concentration given in mol/L; no unit attached.

NC(=O)C1=CN([C@@H]2O[C@H](COP(=O)(O)OP(=O)(O)OC[C@H]3O[C@@H](n4cnc5c(N)ncnc54)[C@H](O)[C@@H]3O)[C@@H](O)[C@H]2O)C=CC1
6.70

Determine its reported pKd: "Nc1c(S(=O)(=O)O)cc(Br)c2c1C(=O)c1ccccc1C2=O" 5.30

###

molecular target: dihydrodipicolinate reductase (DHPR) (Escherichia coli); test: Fluorescence polarization displacement of FITC-NADH from dihydrodipicolinate reductase; type: binding; details: compound from screen of 620 compounds; read-out: kd, tight binding to DHPR
pKd: −log10 of the molar value.
property_label: pKd

Tell me its pKd given "O=S(=O)(O)c1cc(Nc2nc(Nc3ccccc3)nc(N(CCO)CCO)n2)ccc1/C=C\c1ccc(Nc2nc(Nc3ccccc3)nc(N(CCO)CCO)n2)cc1S(=O)(=O)O" as the entry. > 7.00

###

Items are presented alongside their recorded Kd.
target: UniProt P04036; assay: Fluorescence polarization displacement of FITC-NADH from dihydrodipicolinate reductase; assay type: binding; details: 7 μM DHPR, 25 nM FITC-NADH; not corrected for enzyme concentration; read-out: Kapp (Kd app), displacement of FITC-NADH
Just the number please, in µM, no unit attached.

Nc1c(S(=O)(=O)O)cc(Br)c2c1C(=O)c1ccccc1C2=O
30

We next turn to a different compound, shown below.
Give UniProt P04036 Kd for the following compound: "NC(=O)C1=CN([C@@H]2O[C@H](COP(=O)(O)OP(=O)(O)OC[C@H]3O[C@@H](n4cnc5c(N)ncnc54)[C@H](O)[C@@H]3O)[C@@H](O)[C@H]2O)C=CC1" 1.2

###

Biological target: dihydrodipicolinate reductase (DHPR) (Escherichia coli)
Experiment: Fluorescence polarization binding of FITC-NADH titrated with dihydrodipicolinate reductase (FIG. 4)
Conditions: 25 nM FITC-NADH, 20 mM Potassium Phosphate, pH 7.4, or 20 mM HEPES, pH 7.8, fit of mP vs Log(DHPR)
Procedure: This example illustrates the determination of the concentration of FITC-NADH that would provide the best signal to noise ratio for fluorescence polarization assay. FITC-NADH was dissolved in 10 mM TAPS buffer with 5% NaHCO3, pH=8. […] Fluorescence polarization was monitored using a Beacon 2000 Variable Temperature Fluorescence Polarization System (PanVera Corporation, Madison, Wis.) and an LJL Analyst HT 96-384 (Molecular Devices Corporation, Sunnyvale, Calif.). […]
property_label: pKd
Convention used: pKd is expressed as -log10 of the molar concentration.

Determine from records and report pKd for NC(=O)C1=CN(C2OC(COP(=O)(O)OP(=O)(O)OCC3OC(n4cnc5c(NCCNC(=S)Nc6ccc(-c7c8ccc(=O)cc-8oc8cc(O)ccc78)c(C(=O)O)c6)ncnc54)C(O)C3O)C(O)C2O)C=CC1 (stereo not shown) 5.85
